Test system: SNB-19 CNS
Assay: NCI-60 one-dose screen, 48 h (100 = growth as untreated, 0 = no growth, -100 = all killed)
Conditions: 10 µM unless noted
The panel holds about 83,000 compounds, 20% with a hit somewhere; the sample as a whole holds those more often.
Decision: growth beneath 90% gives criterion met; growth meeting or exceeding 90% gives criterion not met.

# example entries with known answers
CCOC(=O)N1CC1 ... criterion not met
C[N+](C)(C)Cc1cc(Cl)ccc1O ... criterion not met
CCc1ccccc1[C@@H]1C[C@]2(C)CCO[C@@H]2OO1 ... criterion not met
Cc1sc2c(c1C)C(c1ccc(Cl)cc1)=N[C@@H](CC(=O)OC(C)(C)C)c1nnc(C)n1-2 ... criterion met

Query: Is the reported growth for CCOC(=O)c1c(C)n(Cc2ccccc2)c2cc(CN(C)C)c(O)cc12 strictly below 90%?
Reply: criterion met

Query: Record: Cn1cc(C2=C(c3cn(C4CCN(Cc5ccccn5)CC4)c4ccccc34)C(=O)NC2=O)c2ccccc21
Reply: criterion not met

Query: Try COC(=O)[C@@H](C)C[C@H](Cc1ccccc1)NC(=O)c1nc([C@@H](C[C@H](C(C)C)N(C)C(=O)[C@@H](NC(=O)[C@H]2CCCN2C)C(C)C)OC(C)=O)sc1C next.
Reply: criterion met

Query: Another: Cc1cc(N(CCCl)CCCl)ccc1C=Nc1cccnc1
Reply: criterion met

Query: Same read-out for COC(=O)[C@@H](C)C[C@H](Cc1ccccc1)NC(=O)c1csc([C@@H](C[C@H](C(C)C)N(C)C(=O)[C@@H](NC(=O)CN(C)C)C2CC2)OC(C)=O)n1 ?
Reply: criterion met

Query: Next entry: C=CC12CCN(CC1)C(C(O)c1ccnc3ccc(OC)cc13)C2 (centres undefined)
Reply: criterion not met

Query: Then what about the molecule Cc1ccc(C(=O)NCCCOc2ccc(N)cc2Cl)cc1S(=O)(=O)F ?
Reply: criterion not met

Query: Entry to check: COC(=O)[C@@H](C)C[C@H](Cc1ccccc1)NC(=O)c1csc([C@@H](C[C@H](C(C)C)N(C)C(=O)[C@H](C)NC(=O)[C@H]2CCCCN2C)OC(C)=O)n1
Reply: criterion met

Query: Please answer likewise for COC(=O)[C@H](Cc1ccccc1)NC(=O)c1csc([C@@H](C[C@H](C(C)C)N(C)C(=O)[C@@H](NC(=O)[C@H]2CCCN2C)C2CC2)OC(C)=O)n1
Reply: criterion met

Query: Entry to check: Oc1c(CCl)cc(Cl)cc1CCl
Reply: criterion not met

Query: Item: O=C(CCCCCCC(=O)Nc1ccc(N(CCCl)CCCl)cc1)NO
Reply: criterion met

Query: Can you handle CC1=C(CCCOC(=O)[C@H](N)CC(C)C)C2=C(C)C3(CC3)[C@@](C)(O)C(=O)C2=C1 next?
Reply: criterion met

Query: Let us now turn to Cc1cc(NC(=O)NCc2ccc(N3C(N)=NC(N)=NC3(C)C)cc2)ccc1S(=O)(=O)F
Reply: criterion met

Query: What do you get for C1CCC2(CC1)OOCNCOO2 ?
Reply: criterion not met

Values compiled from PubChem BioAssay (NCI).
